Please provide measured Emax for the entries that follow.
Assay system: human LXRβ (Homo sapiens, UniProt P55055)
Construct: expressed in transfected cells; host or cells: HEK293 cells (ATCC CRL-1573), transient transfection with pFA-hLXRβ/GAL4 and pUAS
Sequence (P55055 222-460 limits assumed): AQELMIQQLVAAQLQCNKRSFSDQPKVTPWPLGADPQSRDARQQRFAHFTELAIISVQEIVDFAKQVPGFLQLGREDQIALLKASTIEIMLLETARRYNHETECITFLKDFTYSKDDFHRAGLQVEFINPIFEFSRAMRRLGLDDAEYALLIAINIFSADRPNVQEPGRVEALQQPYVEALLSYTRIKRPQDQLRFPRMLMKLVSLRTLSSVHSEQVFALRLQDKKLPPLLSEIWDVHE
Procedure text: Assay for Transcriptional Activity of LXRβ (GAL4-hLXRβ LBD luciferase reporter, transient transfection)
Type: cell-based
Conditions: fold value in comparison with the control (DMSO-treated group); HEK293 cells transfected with pFA-hLXRβ/GAL4 and pUAS; 24 hours
I'd appreciate it if you included the unit after the number.

Recorded Emax (compound CCOc1ccc(-c2ccc(C3CC(C(O)(C(F)(F)F)C(F)(F)F)=NN3c3ccccc3Cl)cc2)cn1 (stereo not shown) [Example 269] ): 44 fold

// recorded Emax for C[S+]([O-])c1ccc(-c2cccc(C3CC(C(F)(F)C(F)(F)F)=NN3c3ccc(F)cc3F)c2)cc1 (stereo not shown) [Example 52] : 56 fold

So, COc1cccc(-c2ccc(C3CC(C(O)(C(F)(F)F)C(F)(F)F)=NN3c3ccccc3Cl)cn2)c1 (stereo not shown) [Example 349] ? Its Emax was 60 fold

Record CN(C)S(=O)(=O)N1CCN(c2ccc(C3CC(C(O)(C(F)(F)F)C(F)(F)F)=NN3c3ccc(F)cc3F)cc2)CC1 (stereo not shown) [Example 407] . Reported Emax: 58 fold

====

Assay system: human LXRβ (Homo sapiens, UniProt P55055)
Procedure text: Assay for Transcriptional Activity of LXRβ (GAL4-hLXRβ LBD luciferase reporter, transient transfection)
Conditions: increase of transcriptional activity of LXRβ; HEK293 cells transfected with pFA-hLXRβ/GAL4 and pUAS; 24 hours; average of three independent tests
What EC50 was measured for each of the following?
Record the value in nM, omitting the unit from your answer.

human LXRβ (Homo sapiens, UniProt P55055) EC50 of Nc1cccc(-c2ccc(C3CC(C(O)(C(F)(F)F)C(F)(F)F)=NN3c3ccccc3Cl)cc2)c1 (centres unmarked) [Example 253] is 1070

Hey, human LXRβ (Homo sapiens, UniProt P55055) data for CN(C)S(=O)(=O)N1CCN(c2ccc(C3CC(C(O)(C(F)(F)F)C(F)(F)F)=NN3c3ccc(F)cc3F)cc2)CC1 (centres unmarked) [Example 407] : EC50 came out at 731

Result for COC(=O)c1cncc(-c2ccc(C3CC(C(O)(C(F)(F)F)C(F)(F)F)=NN3c3ccccc3Cl)cc2)c1 (centres unmarked) [Example 273] , tested on human LXRβ (Homo sapiens, UniProt P55055), EC50: 1150

GET /values?item= CS(=O)(=O)N1CC=C(c2ccc(C3CC(C(O)(C(F)(F)F)C(F)(F)F)=NN3c3ccccc3Cl)cn2)CC1 (centres unmarked) [Example 358] &system= human LXRβ (Homo sapiens, UniProt P55055) returns EC50: 719

So the reported EC50 for CC(=O)c1ccccc1-c1ccc(C2CC(C(O)(C(F)(F)F)C(F)(F)F)=NN2c2ccccc2Cl)cn1 (centres unmarked) [Example 348] , on human LXRβ (Homo sapiens, UniProt P55055), turned out to be 991

====

Provide the recorded pEC50 for the entries that follow.
Assay system: human LXRβ (Homo sapiens)
Procedure text: Assay for Transcriptional Activity of LXRβ (GAL4-hLXRβ LBD luciferase reporter, transient transfection)
Conditions: increase of transcriptional activity of LXRβ; HEK293 cells transfected with pFA-hLXRβ/GAL4 and pUAS; 24 hours; average of three independent tests
Formally, pEC50 is defined as -log10 of the concentration c, with c in mol/L.

Record summary for CN(C)S(=O)(=O)c1cccc(-c2ccc(C3CC(C(O)(C(F)(F)F)C(F)(F)F)=NN3c3ccccc3Cl)cc2)c1 (stereo not drawn) : reported pEC50 = 6.20

For CS(=O)(=O)c1ccc(-c2ccc(C3CC(C(O)(C(F)(F)F)C(F)(F)F)=NN3c3ccc(F)cc3F)cc2)cc1F (stereo not drawn) the compound record lists pEC50 as 7.33

Lab book: pEC50 of CS(=O)(=O)c1ccc(-c2ccc(C3CC(C(O)(C(F)(F)F)C(F)(F)F)=NN3c3ccc(F)cc3F)cc2)cc1C(F)(F)F (stereo not drawn) noted as 6.83

Entry CS(=O)(=O)c1ccc(-c2ccc(C3CC(C(O)(C(F)(F)F)C(F)(F)F)=NN3c3ccccc3Cl)cc2)cn1 (stereo not drawn) — recorded pEC50 = 6.87

Record summary for CSc1cccc(-c2ccc(C3CC(C(O)(C(F)(F)F)C(F)(F)F)=NN3c3ccccc3Cl)c(F)c2)c1 (stereo not drawn) : reported pEC50 = 6.07

In plain terms, CS(=O)(=O)N1CC=C(c2ccc(C3CC(C(O)(C(F)(F)F)C(F)(F)F)=NN3c3ccc(F)cc3F)cc2)CC1 (stereo not drawn) has a documented pEC50 of 6.42

The reported value for COc1ncc(-c2cccc(C3CC(C(F)(F)C(F)(F)F)=NN3c3ccc(F)cc3F)c2)cc1C=O (stereo not drawn) in terms of pEC50 is 5.97

compound O=S1(=O)CCN(c2ccc(C3CC(C(O)(C(F)(F)F)C(F)(F)F)=NN3c3ccccc3Cl)cc2)CC1 (stereo not drawn) , pEC50 observed: 5.69

Documented pEC50 of CN(C)S(=O)(=O)c1cccc(-c2cccc(N3N=C(C(F)(F)C(F)(F)F)CC3c3ccc(F)cc3F)c2)n1 (stereo not drawn) : 5.29

// sample O=S(=O)(C1CC1)N1CCN(c2ccnc(C3CC(C(F)(F)C(F)(F)F)=NN3c3ccc(F)cc3F)c2)CC1 (stereo not drawn) , its pEC50 was 5.55

Noted for OC(C1=NN(c2ccccc2Cl)C(c2ccc(-c3ccc(C(F)(F)F)cc3)cc2)C1)(C(F)(F)F)C(F)(F)F (stereo not drawn) : its pEC50 reads 5.69

The reported pEC50 of the compound OC(C1=NN(c2ccc(F)cc2F)C(c2ccc(-c3c(F)cc(-n4cnnn4)cc3F)cc2)C1)(C(F)(F)F)C(F)(F)F (stereo not drawn) was 6.10

O=Cc1ccc(-c2cccc(C3CC(C(F)(F)C(F)(F)F)=NN3c3ccc(F)cc3F)c2)nc1 (stereo not drawn) yielded pEC50 of 6.13

The compound listed as CS(=O)(=O)N1CC=C(c2ccc(C3CC(C(O)(C(F)(F)F)C(F)(F)F)=NN3c3ccccc3Cl)s2)CC1 (stereo not drawn) has a reported pEC50 of 6.43

Please fill in: pEC50 reported for Fc1ccc(N2N=C(C(F)(F)C(F)(F)F)CC2c2cccc(-c3ccc(F)nc3)c2)c(F)c1 (stereo not drawn) = 5.31

Sample CNCCCS(=O)(=O)c1cccc(-c2cccc(C3CC(C(F)(F)C(F)(F)F)=NN3c3ccc(F)cc3F)c2)c1 (stereo not drawn) ; pEC50 observed: 6.42

OCc1ccc(-c2cccc(C3CC(C(F)(F)C(F)(F)F)=NN3c3ccc(F)cc3F)c2)nc1 (stereo not drawn) yielded pEC50 of 5.84

Input CS(=O)(=O)c1cccc(-c2cccc(C3CC(C(F)(F)C(F)(F)F)=NN3c3ccccc3Cl)n2)c1 (stereo not drawn) . Output pEC50: 6.40

Looking up OC(C1=NN(c2ccccc2Cl)C(c2ccc(-c3ccoc3)cc2)C1)(C(F)(F)F)C(F)(F)F (stereo not drawn) , I see its pEC50 listed as 5.73

Value of measured pEC50 for the entry COc1cc(C)c(-c2ccc(C3CC(C(O)(C(F)(F)F)C(F)(F)F)=NN3c3ccc(F)cc3F)cc2)cn1 (stereo not drawn) : 6.43

OC(C1=NN(c2ccc(F)cc2F)C(c2ccc(-c3cncc(F)c3)cc2)C1)(C(F)(F)F)C(F)(F)F (stereo not drawn) yielded pEC50 of 6.35

From: patent US9376420B2
